assay: protein stability index of a GFP-peptide fusion (GPS, HEK-293T) (PSI 1-6); higher = more stable; conditions: treatment: MLN4924 1 uM, 8 h; c terminus: a fixed tail appended;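 note: 24-mer peptide tiles fused after GFP, lentivirally expressed, FACS-sorted into six equal bins by GFP/DsRed ratio, decoded by Illumina sequencing, PSI is the read-weighted mean bin number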
READOUT: protein stability index
Answer with the value's number alone.

Would you please look over these solved cases?
INSERT INTO assay_data (polymer_sequence, readout, reported_measurement) VALUES
  ('HLPVTFPGKDYDADRQCQLTFGPD [ADAMTS4]', 'protein stability index', 4.38),
  ('DLRLRLDHLGWVARGTGSGEDSST [RTN2]', 'protein stability index', 4.15),
  ('PNYTMEGERPEEGVAGGLNRNQGL [TCF25]', 'protein stability index', 5.22),
  ('ECKHPSVFQHGDNSFRLLFDVVVI [MCOLN1]', 'protein stability index', 3.02);

protein stability index for EGPGEQETKLDLISKGEEPRAGKE [SLC29A1] is 5.43

# protein stability index of LPVVNAVGEIVGIITRHNLTYEFL [CLCN6] = 2.75

DISERPSVDDIESETGSTGALETR [C2CD2L] yielded protein stability index of 5.59

Measured protein stability index, ENHSMYCVQCKMPVCYQCLEEGKH [TRIM9] : 4.36

The sequence listed as KDVLRYGEEQLKTHKKCKEEVVST [FCHO1] shows protein stability index equal to 4.78

The sequence RQDSPSPDFYKQSSPNLQVSSDGT [PCDHGC5] showed protein stability index equal to 4.88

Memo: WTFYPRFSSNIHTYHVGKQCFFNG [SPATS1] , reported protein stability index: 2.24

// sample ATGPMGMRGFKGDRGPKGEKGEKG [SCARA5] , its protein stability index was 5.43

Looking up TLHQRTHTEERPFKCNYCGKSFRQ [ZNF449] , I found its protein stability index recorded as 2.91
